- System: P. falciparum stage V gametocytes
- Design: BacTiter-Glo ATP luminescence viability of purified stage V gametocytes in 384-well plates, per cent inhibition versus DMSO
- Experimental context: 48 h, 5 µM, inhibitor
The campaign covered roughly 13,000 compounds. About 3,200 (25%) showed an effect of 50% or more. Some of the results follow.
Here, each record is paired with measured % Inhibition data.
Quantity measured: % Inhibition (%)

{"columns": ["Compound", "Target under test", "Result units", "Recorded measurement"],
 "data": [
  ["COc1ccc(C[C@@H](C)NC[C@H](O)c2cccc(Cl)c2)cc1F [TCMDC-131516]", "P. falciparum stage V gametocytes", "%", 9.097],
  ["Cc1ccc(CC(C)NC[C@H](O)c2cccc(Cl)c2)cc1 (stereo partly drawn) [TCMDC-131434]", "P. falciparum stage V gametocytes", "%", 17.71],
  ["COc1ccc(C[C@@H](C)NC[C@H](O)c2cccc(Cl)c2)cc1F [TCMDC-131502]", "P. falciparum stage V gametocytes", "%", 8.677],
  ["Cc1ccc(CC(C)NC[C@H](O)c2cccc(Cl)c2)cc1 (stereo partly drawn) [TCMDC-131477]", "P. falciparum stage V gametocytes", "%", 11.62],
  ["Cc1ccc(CC(C)NCC(O)c2cccc(C(F)(F)F)c2)cc1 (stereo not drawn) [TCMDC-131476]", "P. falciparum stage V gametocytes", "%", 12.88],
  ["Cc1ccc(CC(C)NCC(O)c2cccc(C(F)(F)F)c2)cc1 (stereo not drawn) [TCMDC-131450]", "P. falciparum stage V gametocytes", "%", 20.44]
]}

====

- Tested on: P. falciparum stage V gametocytes
- Design: BacTiter-Glo ATP luminescence viability of purified stage V gametocytes in 384-well plates, per cent inhibition versus DMSO
- Experimental context: 48 h, 5 µM; inhibitor
Hit rate of the full screen: of about 13,000 compounds, about 3,200 (25%) showed an effect of 50% or more. The list shows a part of the results.
Here, each record is paired with measured % Inhibition data.

{"columns": ["Compound", "% Inhibition (%)"],
 "data": [
  ["COc1ccc(CC(C)NCC(O)c2cccc(C(F)(F)F)c2)cc1F (stereo not drawn)", 18.55],
  ["C[C@@H](CC1CCCCC1)NCc1ccccc1O", 71.87],
  ["O=P(O)(O)Oc1c(Br)cc(Br)cc1-c1cc(Br)cc(Br)c1O", 1.085],
  ["CC(Cc1ccc(C(C)(C)C)cc1)NCC(O)c1ccccc1 (stereo not drawn)", -2.665],
  ["O=C(NC1CCC(CN2CCC(c3c[nH]c4ccccc34)CC2)CC1)C1(O)c2ccccc2-c2ccccc21 (stereo not drawn)", 25.48],
  ["CN(C)CCC(=O)c1ccccc1", 42.07],
  ["CCOP(=O)(OCC)c1ccc(OC)c(-c2ccc[nH]2)c1", 22.96],
  ["Cc1cc(C)c(CC(C)NCC(O)c2cccc(C(F)(F)F)c2)c(C)c1 (stereo not drawn)", -4.216],
  ["CC[C@H]1CN2CC[C@H]1C[C@@H]2[C@@H](O)c1ccnc2ccccc12", 69.34]
]}

====

- Tested on: P. falciparum stage V gametocytes
- Design: BacTiter-Glo ATP luminescence viability of purified stage V gametocytes in 384-well plates, per cent inhibition versus DMSO
- Experimental context: 48 h, 5 µM; inhibitor
The campaign covered roughly 13,000 compounds. About 3,200 (25%) showed an effect of 50% or more. The list shows a part of the results.
Assign Met whenever % Inhibition does not fall below 20%; assign Not met whenever it does.

{"columns": ["Compound", "Class"],
 "data": [
  ["COc1ccc2[nH]cc(C3=CCN(Cc4ccccc4)CC3)c2c1 [TCMDC-139048]", "Not met"],
  ["Cc1cccc(N2CCN(Cc3cc(Cl)ccc3O)CC2)c1C [TCMDC-123718]", "Not met"],
  ["N#Cc1ccc(CN2CCCN(Cc3cccc(NC(=O)c4ccc(-c5ccccc5)cc4)c3)CC2)cc1 [TCMDC-141838]", "Met"],
  ["Cl.c1ccc2c(NCCCCCCNc3c4ccccc4nc4ccccc34)c3ccccc3nc2c1 [TCMDC-124285]", "Met"],
  ["Cc1ccc(CC(C)NCC(O)c2cccc(C(F)(F)F)c2)cc1F (stereo not shown) [TCMDC-131520]", "Not met"],
  ["[O-]c1n[n+](C2CCCCC2)no1 [TCMDC-138090]", "Met"],
  ["NC(N)=NC(=O)Nc1cc(Br)c(Cl)c(Br)c1 [TCMDC-137464]", "Met"],
  ["CCCCOC(C(=O)OCC1CCCN1C)(c1ccccc1)c1ccccc1 (stereo not shown) [TCMDC-131730]", "Not met"],
  ["CCCCCCCCCCS(=O)(=O)N[C@H](COCc1cccc(Oc2ccccc2)c1)COP(=O)(O)OC [TCMDC-131877]", "Not met"],
  ["COC(C(=O)OCCC1CCCN1C)(c1ccccc1)c1ccccc1 (stereo not shown) [TCMDC-131780]", "Met"],
  ["O=C(c1ccco1)c1cn(CCOc2ccccc2)c2ccccc12 [TCMDC-124426]", "Not met"],
  ["COC(C(=O)OCCC1CCCN1C)(c1ccccc1)C1CCCCC1 (stereo not shown) [TCMDC-131374]", "Met"],
  ["Cc1ccc(CC(C)NCC(O)c2cccc(C(F)(F)F)c2)c(C)c1 (stereo not shown) [TCMDC-131465]", "Not met"],
  ["CCOC(C(=O)OCCN(C(C)C)C(C)C)(c1ccccc1)c1ccccc1 [TCMDC-131391]", "Not met"],
  ["COc1c(F)cc(CC(C)NCC(O)c2cccc(Cl)c2)cc1F (stereo not shown) [TCMDC-131518]", "Not met"],
  ["CC(Cc1ccc(SC(C)(C)C)cc1)NCC(O)c1cccc(Cl)c1 (stereo not shown) [TCMDC-131492]", "Not met"],
  ["CC(C)CCN1C(=O)C(NC(=O)Oc2ccccc2)C(=O)N(CC23CC4CC(CC(C4)C2)C3)c2ccccc21 (stereo not shown) [TCMDC-137160]", "Not met"],
  ["CC(C)N(C)C(=O)n1cnc(S(=O)(=O)C2CC3CCC2C3)n1 (stereo not shown) [TCMDC-134379]", "Met"],
  ["CSc1ccc(C[C@@H](C)NC[C@H](O)c2cccc(Cl)c2)cc1 [TCMDC-131507]", "Not met"],
  ["C#CCN1CCC2=C(C1)c1c(O)cc(C(C)C(C)CCc3ccc(F)cc3)cc1OC2(C)C (stereo not shown) [TCMDC-125707]", "Not met"],
  ["Oc1cc2c(cc1CN1CCN(Cc3ccccc3)CC1)CCC2 [TCMDC-125104]", "Met"],
  ["Cc1ccc(C[C@@H](C)NC[C@H](O)c2cccc(C(F)(F)F)c2)cc1 [TCMDC-131449]", "Not met"],
  ["Cc1ccc(C)c(N2CCN(Cc3ccccc3O)CC2)c1 [TCMDC-123518]", "Not met"],
  ["C#CCN1CCC2=C(C1)c1c(O)cc(C(C)CCCc3ccc(F)cc3)cc1OC2(C)C (stereo not shown) [TCMDC-124277]", "Not met"],
  ["O=C(Nc1ccc(Cl)cc1)c1ccc(CN2CCCN(Cc3cccc(F)c3)CC2)cc1 [TCMDC-136404]", "Not met"],
  ["COC(=O)/C=C/C(=O)N[C@@H]1CC[C@@]2(O)[C@H]3Cc4ccc(O)c5c4[C@@]2(CCN3CC2CC2)[C@H]1O5 [TCMDC-125875]", "Met"],
  ["CCC1(C)CC(CCNCc2ccccc2O)(c2ccc(C)cc2)CCO1 (stereo not shown) [TCMDC-124003]", "Not met"],
  ["CCCC(=O)c1c(O)c2ccccc2oc1=O [TCMDC-123881]", "Not met"],
  ["CCC1=C[C@@H]2CN(C1)Cc1c([nH]c3ccccc13)[C@@](C(=O)OC)(c1cc3c(cc1OC)N(C)[C@H]1[C@@](O)(C(=O)OC)[C@H](O)[C@]4(CC)C=CCN5CC[C@]31[C@@H]54)C2 [TCMDC-137769]", "Met"],
  ["COc1ccc(CC(C)NCC(O)c2cccc(Cl)c2F)cc1 (stereo not shown) [TCMDC-131488]", "Met"],
  ["C=Cc1cc(OC)c2c(c1)c(=O)oc1c2cc(OC)c2c(O)ccc([C@H]3O[C@H]([C@H](C)O)[C@H](O)[C@H]3O)c21 [TCMDC-141972]", "Met"],
  ["Cc1ccc(CC(C)NCC(O)c2cccc([N+](=O)[O-])c2)cc1 (stereo not shown) [TCMDC-131459]", "Met"],
  ["COc1ccc(OCCn2cc(C(=O)c3ccco3)c3ccccc32)cc1 [TCMDC-124425]", "Met"]
]}
